The measured values listed here are drawn from patent US20200123233A1.

target.system: hRSV (inactivated hRSV strain Long, Hytest #8RSV79), F protein on virus particles (human respiratory syncytial virus, …, UniProt P12568 26-574)
procedure.text: binding ELISA on coated hRSV (Hytest), anti-VHH detection
// reported pEC50 per item
Remember the convention: pEC50 equals -log10 of concentration in molar.

1. RSVNC23 (VHH) VHH: EVQLVESGGGLVQPGGSLRLSCAASGRTFSSIAMGWFRQAPGKEREFVAAISWSRGRTFYADSVKGRFIISRDDAANTAYLQMNSLKPEDTAVYYCAVDTASWNSGSFIYDWAYDHWGQGTQVTVSS : 10.00
2. RSVPMP7B2 (VHH) VHH: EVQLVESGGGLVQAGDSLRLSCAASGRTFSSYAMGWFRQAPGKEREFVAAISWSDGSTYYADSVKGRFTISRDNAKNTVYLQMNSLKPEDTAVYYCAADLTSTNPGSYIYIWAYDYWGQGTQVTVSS : 10.05

Note: attention shifts to another entry.
// pEC50 lookup, binder = RSVNC41 (VHH) VHH: EVQLVESGGGLVQAGGSLSISCAASGGSLSNYVLGWFRQAPGKEREFVAAINWRGDITIGPPNVEGRFTISRDNAKNTGYLQMNSLAPDDTAVYYCGAGTPLNPGAYIYDWSYDYWGRGTQVTVSS , result: 9.39
